# systemTested: G-protein coupled receptor 35 (Homo sapiens)
# Sequence (Q9HC97 whole entry): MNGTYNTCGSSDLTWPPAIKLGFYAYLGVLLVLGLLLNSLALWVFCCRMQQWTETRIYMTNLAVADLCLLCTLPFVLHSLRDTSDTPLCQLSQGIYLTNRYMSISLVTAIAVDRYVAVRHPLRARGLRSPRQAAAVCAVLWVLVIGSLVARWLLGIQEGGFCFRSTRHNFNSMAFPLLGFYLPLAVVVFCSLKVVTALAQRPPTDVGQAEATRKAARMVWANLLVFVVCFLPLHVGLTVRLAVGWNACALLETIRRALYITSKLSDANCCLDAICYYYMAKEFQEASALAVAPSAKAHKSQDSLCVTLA
# assayMethodText: Agonist activity at GPR35 receptor in human HT-29 cells at 32 uM after 10 mins by dynamic mass redistribution assay in the presence of SPB05142
# Format: functional, cell-based
Active and inactive are the calls of the source. No cut-off for these calls is given here.
observable: Activity

O=c1cc(-c2ccc(O)c(O)c2)oc2cc(O)cc(O)c12	inactive
CC(=O)NCCc1ccc(O)c(-c2c(O)c(O)c3c(c2O)C(=O)c2c(cc(O)c(C(=O)O)c2C(=O)O)C3=O)c1	inactive
O=c1c(O)c(-c2ccc(O)c(O)c2)oc2cc(O)cc(O)c12	inactive
O=c1cc(-c2ccccc2)oc2cc(O)c(O)c(O)c12	inactive

Below: the item to evaluate.
Qu. Fill in the blank: the reported Activity of O=C(O)c1cccnc1Nc1cccc(C(F)(F)F)c1 is ____.
Ans. inactive
